Biological target: Induced myeloid leukemia cell differentiation protein Mcl-1 (Homo sapiens, UniProt Q07820)
Sequence (Q07820 whole entry): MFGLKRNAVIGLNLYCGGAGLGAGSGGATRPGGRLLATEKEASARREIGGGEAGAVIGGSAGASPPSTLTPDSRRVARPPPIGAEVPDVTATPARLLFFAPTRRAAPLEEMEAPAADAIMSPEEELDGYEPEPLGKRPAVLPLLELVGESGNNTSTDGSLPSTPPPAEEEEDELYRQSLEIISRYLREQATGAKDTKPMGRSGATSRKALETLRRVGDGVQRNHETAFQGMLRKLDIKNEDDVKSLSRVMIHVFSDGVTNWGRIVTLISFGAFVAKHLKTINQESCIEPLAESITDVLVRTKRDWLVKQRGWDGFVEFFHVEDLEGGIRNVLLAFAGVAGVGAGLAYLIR
Assay: Competitive binding affinity to Mcl-1 (unknown origin) using 5-FAM-Bid-BH3 peptide preincubated for 30 mins before 5-FAM-Bid-BH3 peptide addition and measured 20 mins after 5-FAM-Bid-BH3 peptide addition by fluorescence polarization assay
Exercise: for every item that follows, state its recorded Ki.
Numbers only, in µM.

Sample records with Ki:
CC(C)(C)OC(=O)N1C[C@@H](Oc2ccc(-c3ccccc3)cc2)C[C@H]1C(=O)N[C@@H](Cc1ccc(Br)cc1)C(=O)NS(=O)(=O)c1ccccc1 ... 1.2
Cc1ccc(S(=O)(=O)NC(=O)[C@H](Cc2ccc(Br)cc2)NC(=O)[C@@H]2C[C@H](Oc3ccc(-c4ccccc4)cc3)CN2C(=O)OC(C)(C)C)cc1 ... 0.99

Consider the record given below.
Need Ki of `CC(C)(C)OC(=O)N1C[C@@H](Oc2ccc(-c3ccccc3)cc2)C[C@H]1C(=O)N[C@@H](Cc1c[nH]c2ccccc12)C(=O)NS(=O)(=O)c1ccccc1` , thanks.
3.2

* * *

Exercise: for every item that follows, state its recorded pKi.
Target: UniProt Q07817
Sequence (Q07817 whole entry): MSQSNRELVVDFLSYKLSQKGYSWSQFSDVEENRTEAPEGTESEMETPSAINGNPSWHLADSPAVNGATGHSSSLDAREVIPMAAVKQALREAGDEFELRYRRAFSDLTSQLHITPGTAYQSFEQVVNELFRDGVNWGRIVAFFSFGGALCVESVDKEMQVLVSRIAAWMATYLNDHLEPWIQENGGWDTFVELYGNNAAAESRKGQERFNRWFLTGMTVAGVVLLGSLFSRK
Give bare numbers, as −log10 of the molar value.

Sample records with pKi:
Cc1ccc(-c2ccc(O[C@H]3C[C@@H](C(=O)N[C@@H](Cc4ccc(Br)cc4)C(=O)NS(=O)(=O)c4ccc(Cl)c([N+](=O)[O-])c4)N(C(=O)OC(C)(C)C)C3)cc2)cc1 ... 5.92
CC(C)(C)OC(=O)N1C[C@@H](Oc2ccc(-c3ccccc3)cc2)C[C@H]1C(=O)N[C@@H](Cc1ccc(Br)cc1)C(=O)NS(=O)(=O)c1ccc(Cl)c([N+](=O)[O-])c1 ... 5.66
CC(C)(C)OC(=O)N1C[C@@H](Oc2ccc(-c3ccc(Cl)cc3)cc2)C[C@H]1C(=O)N[C@@H](Cc1ccc(Br)cc1)C(=O)NS(=O)(=O)c1ccc(Cl)c([N+](=O)[O-])c1 ... 5.68

Need pKi of `Cc1cc2c(C(C)C)c(O)c(O)c(C=O)c2c(O)c1-c1c(C)cc2c(C(C)C)c(O)c(O)c(C=O)c2c1O` , thanks.
6.11

* * *

Target: Apoptosis regulator Bcl-2 (Homo sapiens)
Sequence (P10415 whole entry): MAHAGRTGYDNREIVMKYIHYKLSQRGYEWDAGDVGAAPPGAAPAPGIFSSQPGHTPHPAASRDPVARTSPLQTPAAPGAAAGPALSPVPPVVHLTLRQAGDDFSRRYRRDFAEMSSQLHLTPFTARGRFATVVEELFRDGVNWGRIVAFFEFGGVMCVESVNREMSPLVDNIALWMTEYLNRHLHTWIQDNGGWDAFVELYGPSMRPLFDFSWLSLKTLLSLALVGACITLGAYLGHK
measuredMetric: Ki
Write the numeric value and append its unit.

Need Ki of `Cc1ccc(-c2ccc(O[C@H]3C[C@@H](C(=O)N[C@@H](Cc4ccccc4)C(=O)NS(=O)(=O)c4ccc(Cl)c([N+](=O)[O-])c4)N(C(=O)OC(C)(C)C)C3)cc2)cc1` , thanks.
4.6 µM

* * *

Exercise: for every item that follows, state its recorded Ki.
Target: Induced myeloid leukemia cell differentiation protein Mcl-1 (Homo sapiens)
Assay: Competitive binding affinity to Mcl-1 (unknown origin) using 5-FAM-Bid-BH3 peptide preincubated for 30 mins before 5-FAM-Bid-BH3 peptide addition and measured 20 mins after 5-FAM-Bid-BH3 peptide addition by fluorescence polarization assay
One number for each entry, in µM.

Cc1ccc(-c2ccc(O[C@H]3C[C@@H](C(=O)N[C@@H](Cc4ccccc4)C(=O)NS(=O)(=O)c4ccccc4)N(C(=O)OC(C)(C)C)C3)cc2)cc1 ... 1.6

Report Ki for each item below.
1. Cc1ccc(-c2ccc(O[C@H]3C[C@@H](C(=O)N[C@@H](Cc4ccccc4)C(=O)NS(=O)(=O)c4ccc(C)cc4)N(C(=O)OC(C)(C)C)C3)cc2)cc1
2. CC(C)(C)OC(=O)N1C[C@@H](Oc2ccc(-c3ccccc3)cc2)C[C@H]1C(=O)N[C@@H](Cc1ccccc1)C(=O)O

1.9
8.4

* * *

Target: Induced myeloid leukemia cell differentiation protein Mcl-1 (Homo sapiens, UniProt Q07820)
Test: Competitive binding affinity to Mcl-1 (unknown origin) using 5-FAM-Bid-BH3 peptide preincubated for 30 mins before 5-FAM-Bid-BH3 peptide addition and measured 20 mins after 5-FAM-Bid-BH3 peptide addition by fluorescence polarization assay
measuredMetric: Ki

Report Ki for each item below.
1. Cc1cc2c(C(C)C)c(O)c(O)c(C=O)c2c(O)c1-c1c(C)cc2c(C(C)C)c(O)c(O)c(C=O)c2c1O
2. CC(C)C[C@H](NC(=O)[C@@H]1C[C@H](Oc2ccc(-c3ccccc3)cc2)CN1C(=O)OC(C)(C)C)C(=O)O
3. Cc1ccc(S(=O)(=O)NC(=O)[C@H](Cc2ccccc2)NC(=O)[C@@H]2C[C@H](Oc3ccc(-c4ccccc4)cc3)CN2C(=O)OC(C)(C)C)cc1
4. CC(C)(C)OC(=O)N1C[C@@H](Oc2ccc(Br)cc2)C[C@H]1C(=O)NCC(=O)O

1: 0.39 µM; 2: > 10 µM; 3: 3.3 µM; 4: > 10 µM

* * *

Exercise: for every item that follows, state its recorded pKi.
Molecular target: Induced myeloid leukemia cell differentiation protein Mcl-1 (Homo sapiens)
Assay: Competitive binding affinity to Mcl-1 (unknown origin) using 5-FAM-Bid-BH3 peptide preincubated for 30 mins before 5-FAM-Bid-BH3 peptide addition and measured 20 mins after 5-FAM-Bid-BH3 peptide addition by fluorescence polarization assay
pKi: −log10 of the molar value.

CC(C)[C@H](NC(=O)[C@@H]1C[C@H](Oc2ccc(-c3ccccc3)cc2)CN1C(=O)OC(C)(C)C)C(=O)O ... < 5.00

Report pKi for each item below.
1. CC(C)C[C@H](NC(=O)[C@@H]1C[C@H](Oc2ccc(Br)cc2)CN1C(=O)OC(C)(C)C)C(=O)O
2. CC(C)(C)OC(=O)N1C[C@@H](Oc2ccc(-c3ccccc3)cc2)C[C@H]1C(=O)N[C@H](C(=O)O)c1ccccc1

1: < 5.00; 2: < 5.00

These entries and their values trace back to ChEMBL document CHEMBL3734725.
